system: RARa:RXR (NR concentration 270 nM, RXRa partner concentration 90 nM); assay: PBM binding z-score (relative to random genomic background probes); higher = stronger binding; sequences stand for … in GC…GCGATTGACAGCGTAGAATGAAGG
readout: PBM binding z-score
Give the figure only, with no unit attached.

Request: # lookup: PBM binding z-score of ATATGTAGGTTAGCTAGGGTCATTCAGACTAGGC
Response: 4.85

Request: # repeat for GGAACGACGGCAAGTTGATAGCAGAGTTTGATGG
Response: -0.23

Request: # repeat for TCATATAGGTAAAAGGTGAAATTCGGTGTGGTAA
Response: 2.81

Request: # repeat for GCAGACAGGTAAAACGCAGGTAACTCAGGGTGGC
Response: -0.286

Request: # repeat for GCTAGTTGGTCAGTAAAAGGTCACAGACCGGTCG
Response: 6.32

Request: # repeat for AGAACGAGGGCAATGAGTTGATGGCACGGGTGGC
Response: 0.0282

Request: # repeat for CGTCAAAGTTGAAGGTAACGTAACAGAAAGCAGC
Response: 0.656

Request: # repeat for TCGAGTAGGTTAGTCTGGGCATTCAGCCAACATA
Response: -0.271

Request: # repeat for CGAACTGGGTCATTGACAGGACAGTGAATAGTAA
Response: 2.18

Request: # repeat for ACAGACAGGTTATGAAGGTAACTCAGGCTATCAT
Response: 0.863

Request: # repeat for GGAACGAGGGGAAAGTTGATAGCATCTGTCGACG
Response: -0.0298

Request: # repeat for TCTCGGAGGACACCAAGGTCAGAGCTTTCCAGAG
Response: 2.17

Request: # repeat for GCTTGTCGATCAAGGTTAAGAAAGACTAAGCTAA
Response: 0.89

Request: # repeat for TAGCCTAGGTCATTGGGCAAGTATAGTACGCATC
Response: 2.38

Request: # repeat for CCTACTGGGCCACCAGGTCATTGATATCAACGTT
Response: 1.75

Request: # repeat for ACTATTAGTTGAGACGTGGGCAACCGATAGGTTG
Response: -0.914

Request: # repeat for GGAACGATGGCATTCGAGTTGATAGCATGGCGAT
Response: -0.647

Request: # repeat for CGAACGAGGGCATTAGTTGATAGCAAATGCCGAT
Response: 0.239

Request: # repeat for AGTCAAAGTTCAAGACGAGGTAACGTAAAGCACG
Response: 4.02

Request: # repeat for TCTATTAGTTGAACGGCAACCGACGAGTCCGTTT
Response: 0.372

Request: # repeat for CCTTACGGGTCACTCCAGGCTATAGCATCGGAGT
Response: 3.16

Request: # repeat for AGAACGAGGGCACGGTGAGTTGATAGCAGAGTAG
Response: 1.27

Request: # repeat for CCTATTAGATGACCATAAGGGCAACCGAAGCTCG
Response: 0.938

Request: # repeat for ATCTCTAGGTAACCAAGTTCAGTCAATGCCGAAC
Response: 1.03

Request: # repeat for CGAACGAGGGCATGGGTTGATAGCAAATGCCGAT
Response: 0.938

Request: # repeat for ATCTCTAGGTAAGAAGTTCAGTGAAAGAGAGGAC
Response: 0.518
